- Test system: human JAK1
- protocol.summary: In vitro JAK kinase assay (HTRF), JAK1
- Format: biochemical
- condition: ratio of JAK2 IC50 to JAK1 IC50 at 1 mM ATP
experimental.endpoint: JAK2/JAK1

• CCC(=O)NC[C@H]1CC[C@H](n2c(CC#N)nc3cnc4ccsc4c32)CC1 = >10
• C[C@@H](O)c1nc2cnc3ccsc3c2n1C1CCN(CC(F)(F)F)CC1 = >9
• CC(C)OC(=O)NC[C@H]1CC[C@H](n2c([C@@H](C)O)nc3cnc4ccsc4c32)CO1 = >10
• C[C@@H](O)c1nc2cnc3ccsc3c2n1[C@H]1CC[C@H](O)CC1 = >10
• C[C@@H](O)c1nc2cnc3ccsc3c2n1[C@H]1CC[C@H](CF)CC1 = >10
• C[C@@H](O)c1nc2cnc3ccsc3c2n1[C@H]1CCCOC1 = >3
• N#CCc1nc2cnc3ccsc3c2n1[C@H]1CC[C@H](CC#N)CC1 = >10
• C[C@@H](O)c1nc2cnc3ccsc3c2n1[C@H]1CC[C@H](NCC(F)(F)F)CC1 = >10
• C[C@@H](O)c1nc2cnc3ccsc3c2n1[C@H]1CC[C@H](CNS(C)(=O)=O)CC1 = >10
• C[C@@H](O)c1nc2cnc3ccsc3c2n1[C@H]1CCN(C(=O)CC#N)C1 = >6
• CC(=O)NC(C)c1nc2cnc3ccsc3c2n1[C@H]1CC[C@H](CC#N)OC1 (stereo partly shown) = >10
• COC(=O)NC[C@H]1CC[C@H](n2c([C@@H](C)O)nc3cnc4ccsc4c32)CC1 = >10
• C[C@@H](O)c1nc2cnc3ccsc3c2n1[C@H]1CCCN(C(=O)CCCC#N)C1 = >10
• CCc1nc2cnc3ccsc3c2n1[C@H]1CC[C@H](CC#N)CC1 = >10
• CS(=O)(=O)NCc1nc2cnc3ccsc3c2n1[C@H]1CC[C@H](CC#N)CC1 = >10
• N#CC[C@H]1CC[C@H](n2c(C3CC3)nc3cnc4ccsc4c32)CC1 = >10
